Biological target: T1, human PTH/PTHrP receptor (PTH1 receptor) (human, UniProt Q03431 27-593)
T1 sequence (looked up): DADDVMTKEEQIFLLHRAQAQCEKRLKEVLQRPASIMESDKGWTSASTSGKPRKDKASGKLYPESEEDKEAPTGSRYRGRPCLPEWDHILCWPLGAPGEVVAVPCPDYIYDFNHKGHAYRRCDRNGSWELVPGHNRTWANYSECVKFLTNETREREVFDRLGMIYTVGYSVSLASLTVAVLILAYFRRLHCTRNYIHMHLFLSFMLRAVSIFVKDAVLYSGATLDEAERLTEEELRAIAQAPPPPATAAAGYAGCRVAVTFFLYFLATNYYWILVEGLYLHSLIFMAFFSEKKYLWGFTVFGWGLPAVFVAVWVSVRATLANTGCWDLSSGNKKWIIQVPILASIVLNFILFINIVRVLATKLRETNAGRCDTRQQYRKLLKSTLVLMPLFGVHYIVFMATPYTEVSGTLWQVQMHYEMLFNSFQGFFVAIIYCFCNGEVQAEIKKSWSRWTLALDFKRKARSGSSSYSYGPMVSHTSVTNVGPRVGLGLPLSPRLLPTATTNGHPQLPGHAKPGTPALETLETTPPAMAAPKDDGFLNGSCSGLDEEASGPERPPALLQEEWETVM
Assay: cell-based or functional assay
Non-standard residues stand in square brackets, D forms with d. No end group written: not given here. Nle = CCCC[C@H](N)C(=O)O
measured.property: Adenylate cyclase (EC50), SaOS membranes (nM)

[
  {
    "binder": "AVSEIQLMHNLGKHLASVERMQWLRKKLQDVHNF (peptide, UniProt P04089 32-65, looked up, range 1-34; Synthetic, Bachem; also called rPTH-(1-34); rat (r)PTH-(1-34)) [rat PTH-(1-34)]",
    "Adenylate cyclase (EC50), SaOS membranes [nM]": 0.09
  },
  {
    "binder": "SVSEMQLMHNLGEHRHTVERQDWLQMKLQDVHSA-NH2 (peptide, UniProt P15743 32-65, looked up, range 1-34; Solid phase synthesis; also called cPTH-(1-34)NH2) [Chicken PTH-(1-34)amide]",
    "Adenylate cyclase (EC50), SaOS membranes [nM]": 16.3
  },
  {
    "binder": "bPTH-(1-84) (ligand, bovine, UniProt P01268 32-115, looked up, range 1-84; From the National Hormone and Pituitary Program (NIDDK); also called bovine PTH-(1-84)) AVSEIQFMHNLGKHLSSMERVEWLRKKLQDVHNFVALGASIAYRDGSSQRPRKKEDNVLVESHQKSLGEADKADVDVLIKAKPQ",
    "Adenylate cyclase (EC50), SaOS membranes [nM]": 2.4
  }
]

A. SVSEIQL[Nle]HNLGKHLNS[Nle]ERVEWLRKKLQDVHNY [(Nle^8,18, Tyr^34)hPTH-(1-34)]
B. AVSEIQFMHNLGKHLSSMERVEWLRKKLQDVHNF (peptide, UniProt P01268 32-65, looked up, range 1-34; Synthetic, Bachem; also called bPTH-(1-34); bovine (b)PTH-(1-34)) [bovine PTH-(1-34)]
QUERY: Determine, for A and B , which has the greater value of Adenylate cyclase (EC50), SaOS membranes. Reply with the label of the item you choose.
RESULT: A
(A: 1.9 nM, B: 0.5 nM)

Data credit: patent US20060025342A1
